Source listed as ChEMBL document CHEMBL1123299.

// values below are reported LD50
- MEASUREMENT PROTOCOL: Acute toxicity determined after intravenal administration in mice
- Assay type: organism-based
- STATED CONDITIONS: mouse, in vivo, iv
PARAMETER: LD50

>>> obs_value("Cc1cccc(C)c1NC(=O)CNC(=O)C1CC(C)(C)NC1(C)C (stereo unspecified)")
"40 mg/kg"
>>> obs_value("CC(CNC(=O)C1=CC(C)(C)NC1(C)C)NCc1cccs1 (stereo unspecified)")
"68 mg/kg"
>>> obs_value("CC1(C)C=C(C(=O)NCCCNC(=O)C(C)(C)Oc2ccc(Cl)cc2)C(C)(C)N1")
"46 mg/kg"
>>> obs_value("Cc1nc2ccccc2c(=O)n1CC(O)CNC(=O)C1=CC(C)(C)NC1(C)C (stereo unspecified)")
"73 mg/kg"
>>> obs_value("COc1ccc(CNCCNC(=O)C2=CC(C)(C)NC2(C)C)cc1OC")
"61 mg/kg"
>>> obs_value("C/C=C/c1ccc(OCC(=O)NCC(C)(C)CNC(=O)C2=CC(C)(C)NC2(C)C)c(OC)c1")
"31 mg/kg"

====

- System: Rattus norvegicus
- MEASUREMENT PROTOCOL: Incidence of arrhythmias in rats after a intravenal administration at 4 mg/kg, expressed as no. of positive cases out of no. of tested cases (10)
- Format: functional
PARAMETER: No. of positive cases

>>> obs_value("CC1(C)C=C(C(=O)NCCCNC(=O)C2CCCCC2C(=O)O)C(C)(C)N1 (centres undefined)")
0
>>> obs_value("Cc1cccc(C)c1NC(=O)C(C)NCCNC(=O)C1=CC(C)(C)NC1(C)C (centres undefined)")
4
>>> obs_value("CC1(C)C=C(C(=O)NCCCCNCc2cccs2)C(C)(C)N1")
10
>>> obs_value("CC1(C)C=C(C(=O)NCC(O)CNC(=O)C(C)(C)Oc2ccc(Cl)cc2)C(C)(C)N1 (centres undefined)")
0
